STUDY_SYSTEM: T1, hVISTA-Fc (R&D systems. Cat. No. 7126-B7) (human, UniProt Q9H7M9 33-194)
T1 construct: Bought antigen; also called human VISTA-Fc; VISTA-FC Human
T1 sequence: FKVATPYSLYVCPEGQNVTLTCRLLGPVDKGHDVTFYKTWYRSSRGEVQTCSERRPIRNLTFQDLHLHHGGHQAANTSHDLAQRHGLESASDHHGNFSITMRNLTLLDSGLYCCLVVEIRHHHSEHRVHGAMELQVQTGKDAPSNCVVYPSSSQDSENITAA
MEASUREMENT_PROTOCOL: Octet (BLI), antibody immobilised on biosensor, antigen in solution
We begin with a simple list: items and their reported Kd.
MEASURED_ATTRIBUTE: Kd (nM)

INSERT INTO measurements (binder, observed_measurement) VALUES
  ('anti-VISTA antibody 2C12 (IgG form) (antibody, V domains shown, also called #2C12(H); #2C12(M)) VH: QVQLVESGAEVKKPGASVKVSCKASGYIFTDYYMHWVRQAPGQGLEWMGVINPYDGRTSFAQKFQGRLTVTRDTSTSTAYMDLSGLRSEDTAVYYCAKQMGIWDYDAFDIWGQGTMVTVSS VL: QFVLTQPSSVSGAPGQRVIISCTGSSSNIGAGYDVHWYQQLPGTAPKVLIYGNSDRPSGVPDRFSASKSATSASLAITGLQAEDEADYYCVAWDDSLKAYVFGTGTKVTVLG', 1.02),
  ('anti-VISTA antibody 1A12 (IgG form) (antibody, V domains shown) VH: QMQLVESGGGLVEPGRSLRLSCTTSGFSFHDYTMYWVRQVPGKGLEWVSLISWDGTITFYADPVRGRFTISRDNSKNSLYLQMNSLRAEDTAVYYCAKEDRYDYYSGAFDIWGQGTVVTVSS VL: QSALTQPRSVSGSPGQSVTISCTGTSSDVGGYDYVSWYQQHPGKAPKLILNDVNKRPSGVPDRFSGSKSGNTASLTISGLQPDDEADYYCSSFAGSNTLRVFGGGTKLTVLG', 0.546),
  ('anti-VISTA antibody 3C5 (IgG form) (antibody, V domains shown) VH: QVQLVQSGAEVKKPGASVKLSCKASGYTFSSYWMHWVRQAPGQRLEWMGEINPGNGHTNYNEKFKSRVTITVDKSASTAYMELSSLRSEDTAVYYCAKDIAYYDFWSGDAFDLWGQGTMVTVSS VL: SYELTQPLSVSVSPGQTASITCSGDKLGNKYASWYQQKPGQSPVLVIYQDNKRPSGIPERFSGSNSGNTATLTISGTQATDEADYYCQTWDRSTGVFGTGTKVTVLG', 13.9),
  ('anti-VISTA antibody 1B8 (IgG form) (antibody, V domains shown, also called Anti VISTA 3.0(1B8); anti-VISTA mAb 1B8) VH: QMQLVQSGAEVKKPGSSVKVSCKASGGSSSNYAISWVRQAPGQGLEWMGGIIPIFGTTSYAQKFQGRVTITADGSMSTAYMELSSLRSEDTAVYYCAKGAIEPWPFYFDNWGQGTLVTVSS VL: QLVLTQPRSVSGSPGQSVTISCTGTNSDVGAYNYLSWYQQLPGRAPKVIIYDVNKRPSGVPDRFSGSRSGKTASLTISGLQAEDEADYYCAAWDDSLNGLVFGGGTKLTVLG', 9.29);
